biological target: CD33 antigen (human) (UniProt P20138); test: competition with 125I-labelled native antibody on HEL 92.1.7 cells; IC50 (reference) / IC50 (sample)
# if value of Rel. Affinity reaches 0.8, tag t; if it stays below, tag f

{"binder": "Conjugate of 4-acetylbenzenebutanoic acid (19) condensed with Calicheamicin N-acetyl gamma dimethyl hydrazide and h-P67.6 (antibody, V domains shown, drug-linker amide on lysine side chains, sites not stated; drug-linker amide on lysine side chains, sites not stated) VH: EVQLVQSGAEVKKPGSSVKVSCKASGYTITDSNIHWVRQAPGQSLEWIGYIYPYNGGTDYNQKFKNRATLTVDNPTNTAYMELSSLRSEDTDFYYCVNGNPWLAYWGQGTLVTVSS VL: DIQLTQSPSTLSASVGDRVTITCRASESLDNYGIRFLTWFQQKPGKAPKLLMYAASNQGSGVPSRFSGSGSGTEFTLTISSLQPDDFATYYCQQTKEVPWSFGQGTKVEVKR", "assigned.category": "f"}
{"binder": "Conjugate of 4-(4-acetylphenoxy)butanoic acid (7) condensed with Calicheamicin N-acetyl gamma dimethyl hydrazide and h-P67.6 (antibody, V domains shown, drug-linker amide on lysine side chains, sites not stated; drug-linker amide on lysine side chains, sites not stated) VH: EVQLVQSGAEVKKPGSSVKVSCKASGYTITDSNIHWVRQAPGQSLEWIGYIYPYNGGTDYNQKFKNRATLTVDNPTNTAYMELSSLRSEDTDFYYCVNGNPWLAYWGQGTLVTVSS VL: DIQLTQSPSTLSASVGDRVTITCRASESLDNYGIRFLTWFQQKPGKAPKLLMYAASNQGSGVPSRFSGSGSGTEFTLTISSLQPDDFATYYCQQTKEVPWSFGQGTKVEVKR", "assigned.category": "f"}
{"binder": "Conjugate of 4-4-(4-fluorobenzoyl)phenoxy!butanoic acid (21) condensed with Calicheamicin N-acetyl gamma dimethyl hydrazide and h-P67.6 (antibody, V domains shown, drug-linker amide on lysine side chains, sites not stated; drug-linker amide on lysine side chains, sites not stated) VH: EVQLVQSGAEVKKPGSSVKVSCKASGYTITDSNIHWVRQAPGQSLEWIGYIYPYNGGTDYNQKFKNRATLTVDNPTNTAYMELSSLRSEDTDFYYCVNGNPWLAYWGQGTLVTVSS VL: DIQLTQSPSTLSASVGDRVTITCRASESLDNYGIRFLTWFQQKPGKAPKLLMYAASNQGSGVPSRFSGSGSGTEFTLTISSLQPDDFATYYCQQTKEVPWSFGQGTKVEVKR", "assigned.category": "f"}
{"binder": "Conjugate of 4-acetylphenylacetic acid (33) condensed with Calicheamicin N-acetyl gamma dimethyl hydrazide and h-P67.6 (antibody, V domains shown, drug-linker amide on lysine side chains, sites not stated; drug-linker amide on lysine side chains, sites not stated) VH: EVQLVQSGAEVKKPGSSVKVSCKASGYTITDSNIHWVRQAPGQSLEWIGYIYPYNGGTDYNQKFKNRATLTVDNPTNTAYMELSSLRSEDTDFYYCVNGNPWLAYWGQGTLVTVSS VL: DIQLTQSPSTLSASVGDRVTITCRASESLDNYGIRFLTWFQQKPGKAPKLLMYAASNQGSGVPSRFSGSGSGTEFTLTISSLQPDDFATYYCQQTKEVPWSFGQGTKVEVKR", "assigned.category": "t"}
